Molecular target: DNA cytosine-5 methyltransferase (DCMTase, Dnmt1) (Mus musculus, UniProt P13864 P13864:1-1620)
Sequence (P13864 whole entry, one chain of several): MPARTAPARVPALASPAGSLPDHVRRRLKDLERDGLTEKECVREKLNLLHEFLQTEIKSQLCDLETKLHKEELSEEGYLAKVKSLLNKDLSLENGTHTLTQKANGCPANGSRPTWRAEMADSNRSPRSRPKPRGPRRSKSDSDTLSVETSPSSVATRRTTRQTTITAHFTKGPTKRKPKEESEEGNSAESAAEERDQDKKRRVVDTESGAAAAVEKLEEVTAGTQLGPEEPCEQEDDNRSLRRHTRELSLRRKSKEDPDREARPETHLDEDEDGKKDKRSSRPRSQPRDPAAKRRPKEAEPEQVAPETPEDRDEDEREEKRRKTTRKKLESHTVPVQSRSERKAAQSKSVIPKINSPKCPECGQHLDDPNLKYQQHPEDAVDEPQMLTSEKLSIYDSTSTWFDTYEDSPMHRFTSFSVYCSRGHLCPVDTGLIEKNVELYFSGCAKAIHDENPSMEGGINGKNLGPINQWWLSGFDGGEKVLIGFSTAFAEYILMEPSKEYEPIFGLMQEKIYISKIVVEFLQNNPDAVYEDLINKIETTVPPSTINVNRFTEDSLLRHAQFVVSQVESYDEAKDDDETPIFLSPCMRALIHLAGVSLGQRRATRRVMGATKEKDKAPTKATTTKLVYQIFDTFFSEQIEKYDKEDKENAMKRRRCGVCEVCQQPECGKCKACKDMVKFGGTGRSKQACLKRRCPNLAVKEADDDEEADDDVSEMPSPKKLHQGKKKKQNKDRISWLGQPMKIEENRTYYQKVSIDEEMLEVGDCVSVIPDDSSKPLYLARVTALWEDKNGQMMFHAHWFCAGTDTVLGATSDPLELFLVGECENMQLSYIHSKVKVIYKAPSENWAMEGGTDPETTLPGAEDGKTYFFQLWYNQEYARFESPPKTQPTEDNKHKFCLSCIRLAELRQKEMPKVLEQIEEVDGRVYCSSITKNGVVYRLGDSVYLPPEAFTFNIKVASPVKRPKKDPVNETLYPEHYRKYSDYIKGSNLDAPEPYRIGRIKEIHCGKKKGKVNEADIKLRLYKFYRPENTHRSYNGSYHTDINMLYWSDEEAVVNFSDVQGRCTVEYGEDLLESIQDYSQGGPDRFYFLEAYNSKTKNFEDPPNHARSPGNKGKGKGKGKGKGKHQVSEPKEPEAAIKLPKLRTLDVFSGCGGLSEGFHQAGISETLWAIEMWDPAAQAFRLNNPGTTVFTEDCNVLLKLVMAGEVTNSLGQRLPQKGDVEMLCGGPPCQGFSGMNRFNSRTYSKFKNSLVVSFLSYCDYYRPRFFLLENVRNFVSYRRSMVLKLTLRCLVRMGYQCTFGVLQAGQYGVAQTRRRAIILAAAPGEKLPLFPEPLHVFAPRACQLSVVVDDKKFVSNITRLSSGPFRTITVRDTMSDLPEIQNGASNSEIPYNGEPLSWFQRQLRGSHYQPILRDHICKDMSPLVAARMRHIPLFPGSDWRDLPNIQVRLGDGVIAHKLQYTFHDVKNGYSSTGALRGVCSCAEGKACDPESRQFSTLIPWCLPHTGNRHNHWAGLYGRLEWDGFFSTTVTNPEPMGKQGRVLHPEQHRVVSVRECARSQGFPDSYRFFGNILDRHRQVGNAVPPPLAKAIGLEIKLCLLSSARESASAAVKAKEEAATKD
Assay: EMSA; unit printed as mM (text indicates micromolar)
Settings: tags: none; purified from mouse erythroleukemia (MEL) cells; label: 32P
Assignment: determine reported pKd for the given binders.
Please note pKd is a logarithmic value: minus log10 of concentration in mol/L. Answer with that number alone.

Which pKd is listed for CRE a/b (dsDNA) DNA 1: GGGAATTCAAATGACGTCAAAAGGATCCAG DNA 2: CTGGATCCTTTTGACGTCATTTGAATTCCC ?
5.82

Using the record for CRE aMET/b (dsDNA, 5mC at position 15 of strand a (hemi-methylated CpG)) DNA 1: GGGAATTCAAATGACGTCAAAAGGATCCAG DNA 2: CTGGATCCTTTTGACGTCATTTGAATTCCC , report its pKd.
6.00
